- target_entity: uPAR^1−283 (UniProt Q03405-1 23-305)
- Sequence (Q03405 23-305): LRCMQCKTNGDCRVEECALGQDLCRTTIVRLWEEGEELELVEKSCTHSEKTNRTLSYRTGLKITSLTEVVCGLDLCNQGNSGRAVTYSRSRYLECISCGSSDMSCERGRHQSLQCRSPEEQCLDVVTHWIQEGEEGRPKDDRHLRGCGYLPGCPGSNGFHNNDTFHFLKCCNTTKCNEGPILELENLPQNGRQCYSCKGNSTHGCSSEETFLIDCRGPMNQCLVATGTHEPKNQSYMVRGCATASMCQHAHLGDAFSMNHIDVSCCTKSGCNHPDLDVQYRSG
- procedure_summary: SPR; uPAR^1−283 immobilised on a CM5 chip by amine coupling (905-1,333 RU); peptides injected in single cycle protocols, five serial 2-fold dilutions; 10 mM HEPES, 150 mM NaCl, 3 mM EDTA, 0.05% P-20, pH 7.4, 20°C; Biacore T200; simple bimolecular model, global fit
- condition_summary: both partners purified
pKd: −log10 of the molar value.
reported_endpoint: pKd

[1] DXFSRYLWS (RESCA1 chelator conjugated at the N-terminal; Cha (cyclohexylalanine) at position 2; (D)Ser at position 4; (D)Arg at position 5) [RESCA1-AE105]
[2] DXFSRYLWS (Cha (cyclohexylalanine) at position 2; (D)Ser at position 4; (D)Arg at position 5) [AE105]
**Q:** Which record shows the lower pKd: the first, 1 , or the second, 2 ? Identify your selection by its label.
**A:** 1
